Each recorded value in this set is attributed to the supplement of paper PMC10567573.

B1: FAM9B (parent)
chain: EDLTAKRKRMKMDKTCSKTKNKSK

Variants of: B1
Assay Details: protein stability index of a GFP-peptide fusion (GPS, HEK-293T) (PSI 1-6); higher = more stable;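 further: lentivirally expressed fusions sorted by FACS into six bins by GFP to DsRed ratio, PSI derived from sequencing read proportions per bin multiplied by bin number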
Run Conditions: c terminus: a fixed tail appended
Given measured protein stability index, output true (1) if it is greater than or equal to 5 and false (0) if not.

EDGTAKRKRMKMDKTCSKTKNKSK [L3G]    true (1)
RDLTAKRKRMKMDKTCSKTKNKSK [E1R]    false (0)

Q: Form field: protein stability index at least 5? Entry: EDLTAKRKRMKMDKTCSKTKNRSK [K22R]
Ans: true (1)

Q: Form field: protein stability index at least 5? Entry: EILTAKRKRMKMDKTCSKTKNKSK [D2I]
Ans: false (0)

Q: Form field: protein stability index at least 5? Entry: EELTAKRKRMKMDKTCSKTKNKSK [D2E]
Ans: true (1)
